Target: T1, recombinant human TL1A (human, UniProt O95150 71-251)
T1 chain: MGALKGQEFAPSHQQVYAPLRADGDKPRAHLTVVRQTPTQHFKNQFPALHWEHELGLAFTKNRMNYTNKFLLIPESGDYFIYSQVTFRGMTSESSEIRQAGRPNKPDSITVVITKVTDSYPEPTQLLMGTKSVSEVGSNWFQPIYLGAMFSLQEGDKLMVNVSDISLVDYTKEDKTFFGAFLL
Test: cell-based or functional assay
Items are presented alongside their recorded Whole blood IFNγ assay, Bioactivity relative to TL1A-0002.
reported-endpoint: Whole blood IFNγ assay, Bioactivity relative to TL1A-0002 (fold)

binder | recorded-value
TL1A-0260 (antibody, human IgG1, kappa, V domains shown, human IgG1 effector-function-minimized/kappa; also called bio-TL1A-0260 (biotinylated reporter)) VH: QVQLVQSGAEVKKPGASVKVSCKASGYDYTYYGISWVRQAPGQGLEWMGWISTYNTGTHYAPSLQGRVTMTTDTSTSTAYMELRSLRSDDTAVYYCARESYYGSGAFRGGMDVWGQGTTVTVSS VL: DIQMTQSPSSLSASVGDRVTITCRASQSVSSYLAWYQQKPGKAPKLLIYDASNRATGVPSRFSGSGSGTDFTLTISSLQPEDFATYYCQQRSNWPWTFGQGTKVEIKR | 0.9
TL1A-0002 (antibody, human IgG1, kappa, V domains shown, human IgG1 effector-function-minimized/kappa; also called parental TL1A-0002) VH: QVQLVQSGAEVKKPGASVKVSCKASGYDFTYYGISWVRQAPGQGLEWMGWISTYNGNTHYARMLQGRVTMTTDTSTRTAYMELRSLRSDDTAVYYCARENYYGSGAYRGGMDVWGQGTTVTVSS VL: EIVLTQSPATLSLSPGERATLSCRASQSVSSYLAWYQQKPGQAPRLLIYDASNRATGIPARFSGSGSGTDFTLTISSLEPEDFAVYYCQQRSNWPWTFGQGTKVEIKR | 1
TL1A-0278 (antibody, human IgG1, kappa, V domains shown, human IgG1 effector-function-minimized/kappa) VH: QVQLVQSGAEVKKPGASVKVSCKASGYDFSYYGISWVRQAPGQGLEWMGWISTYNTVTHYAPSLQGRVTMTTDTSTSTAYMELRSLRSDDTAVYYCARESYYGSGAFRGGMDVWGQGTTVTVSS VL: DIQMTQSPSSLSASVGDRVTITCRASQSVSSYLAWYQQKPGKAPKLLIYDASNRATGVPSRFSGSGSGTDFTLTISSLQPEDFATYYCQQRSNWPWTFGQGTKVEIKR | 1
